Test: Phase I study NCT02841540: plasma pharmacokinetics
Assay type: in vivo, human
Conditions: human, oral; 12 mg once daily, plasma, median
property.name: Tmax (h)
Response body: numeric value in h, unit text excluded.

Lookup: Tell me the measured Tmax of C/C(=C\C=C\[C@@H](C)c1ccccn1)[C@H]1OC(=O)C[C@H](O)CC[C@@](C)(O)[C@@H](OC(=O)N2CCN(C)CC2)/C=C/[C@@H]1C , please.
Found: 2

###

Test: Phase I study NCT02841540: plasma pharmacokinetics
Type: in vivo, human
Settings: human, oral; 5.0 mg once daily, plasma, geometric mean (CV %)
property.name: half-life (h)
Response body: numeric value in h, unit text excluded.

Lookup: Tell me the measured half-life of C/C(=C\C=C\[C@@H](C)c1ccccn1)[C@H]1OC(=O)C[C@H](O)CC[C@@](C)(O)[C@@H](OC(=O)N2CCN(C)CC2)/C=C/[C@@H]1C [Compound 1] , please.
Found: 5.8

###

Assay: Phase I study NCT02841540: plasma pharmacokinetics
Format: in vivo, human
Details: human, oral; 10 mg once daily, plasma, geometric mean (CV %)
property.name: Cmax (ng/mL)
Response body: numeric value in ng/mL, unit text excluded.

Lookup: Tell me the measured Cmax of C/C(=C\C=C\[C@@H](C)c1ccccn1)[C@H]1OC(=O)C[C@H](O)CC[C@@](C)(O)[C@@H](OC(=O)N2CCN(C)CC2)/C=C/[C@@H]1C , please.
Found: 12.7

###

Experiment: Phase I study NCT02841540: plasma pharmacokinetics
Type: in vivo, human
Conditions: human, oral; 14 mg once daily, plasma, geometric mean (CV %)
property.name: Cmax (ng/mL)
Response body: numeric value in ng/mL, unit text excluded.

Lookup: Tell me the measured Cmax of C/C(=C\C=C\[C@@H](C)c1ccccn1)[C@H]1OC(=O)C[C@H](O)CC[C@@](C)(O)[C@@H](OC(=O)N2CCN(C)CC2)/C=C/[C@@H]1C [Compound 1] , please.
Found: 25.6
